Where do the numbers come from? From PubChem BioAssay AID1963986.

For each of the compounds below, state its viability, T/C.
# Test system: 171881-019-R-J1-PDC tumor spheroid viability
# experiment-notes: Anticancer human tumor 171881-019-R-J1-PDC patient-derived invasive breast carcinoma cell line growth inhibition [PI3K]
# condition-info: second compound 0.0316 µM; first compound 0.316 µM; active compounds read low; spheroids with HUVEC and MSC
Record the value in %, omitting the unit from your answer.

Request: Looking for the measured viability, T/C of CCCS(=O)(=O)Nc1ccc(F)c(C(=O)c2c[nH]c3ncc(-c4ccc(Cl)cc4)cc23)c1F + COc1c(OCCCN2CCOCC2)ccc2c3n(c(=NC(=O)c4cnc(N)nc4)nc12)CCN3 , can you help?
Result: 32

Request: Can you check C=CC(=O)N1CCN(c2nc(=O)n(-c3c(C)ccnc3C(C)C)c3nc(-c4c(O)cccc4F)c(F)cc23)C(C)C1 (stereo not given) + CC(Nc1ccc2c(c1)OCCn1cc(N3C(=O)OCC3C(F)F)nc1-2)C(N)=O next?
Result: 52.1

Request: Record: C[C@@H](NC(=O)c1ncnc(N)c1Cl)c1ncc(C(=O)Nc2cc(C(F)(F)F)c(Cl)cn2)s1 + Cc1nc(NC(=O)N2CCCC2C(N)=O)sc1-c1ccnc(C(C)(C)C(F)(F)F)c1
Result: 84.8

Request: Same for CCN1CCN(Cc2ccc(Nc3ncc(F)c(-c4cc(F)c5nc(C)n(C(C)C)c5c4)n3)nc2)CC1 + CC(Nc1ncnc2nc[nH]c12)c1cc2cccc(Cl)c2c(=O)n1-c1ccccc1
Result: 122

Request: Subsequent entry: CNC(=O)c1ccc(N2C(=S)N(c3ccc(C#N)c(C(F)(F)F)c3)C(=O)C2(C)C)cc1F + CC(Nc1ncnc2nc[nH]c12)c1cc2cccc(Cl)c2c(=O)n1-c1ccccc1
Result: 80.1

---

# Test system: 171881-019-R-J1-PDC tumor spheroid viability
# experiment-notes: Anticancer human tumor 171881-019-R-J1-PDC cell line growth inhibition [PI3K]; active means viability on the fitted dose curve at most 10% of control; inactive means the rest;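 also: spheroids exposed to compound for 7 days before viability read; 100% = DMSO vehicle-treated spheroids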
# condition-info: second compound 0.1 µM; first compound 0.316 µM; spheroids with HUVEC and MSC
Hello, when you answer, please use one of the following outcomes: active, inactive

Request: Assay result, entry CCCS(=O)(=O)Nc1ccc(F)c(C(=O)c2c[nH]c3ncc(-c4ccc(Cl)cc4)cc23)c1F + COc1c(OCCCN2CCOCC2)ccc2c3n(c(=NC(=O)c4cnc(N)nc4)nc12)CCN3 — outcome?
Result: inactive

Request: Also CC1(C)CCC(CN2CCN(c3ccc(C(=O)NS(=O)(=O)c4ccc(NCC5CCOCC5)c([N+](=O)[O-])c4)c(Oc4cnc5[nH]ccc5c4)c3)CC2)=C(c2ccc(Cl)cc2)C1 + Cc1nc(NC(=O)N2CCCC2C(N)=O)sc1-c1ccnc(C(C)(C)C(F)(F)F)c1 ?
Result: inactive

Request: Same lookup for CCN1CCN(Cc2ccc(Nc3ncc(F)c(-c4cc(F)c5nc(C)n(C(C)C)c5c4)n3)nc2)CC1 + CC(Nc1ccc2c(c1)OCCn1cc(N3C(=O)OCC3C(F)F)nc1-2)C(N)=O , please.
Result: inactive

Request: Then what about the compound Cn1ncc(Cl)c1-c1cc(C(=O)NC(CN)Cc2cccc(F)c2)sc1Cl (stereo not given) + CC(Nc1ccc2c(c1)OCCn1cc(N3C(=O)OCC3C(F)F)nc1-2)C(N)=O ?
Result: inactive

Request: Moving on to CC(C)NCC(C(=O)N1CCN(c2ncnc3c2C(C)CC3O)CC1)c1ccc(Cl)cc1 (stereo not given) + CC(Nc1ncnc2nc[nH]c12)c1cc2cccc(Cl)c2c(=O)n1-c1ccccc1
Result: inactive

Request: Next compound up: CC1(C)CCC(Nc2ncc(C(F)(F)F)c(-c3c[nH]c4c(P(C)(C)=O)c(C#N)ccc34)n2)CN1 (stereo not given) + COc1c(OCCCN2CCOCC2)ccc2c3n(c(=NC(=O)c4cnc(N)nc4)nc12)CCN3
Result: active

Request: Try this compound next: CC1(C)CCC(Nc2ncc(C(F)(F)F)c(-c3c[nH]c4c(P(C)(C)=O)c(C#N)ccc34)n2)CN1 (stereo not given) + CC(Nc1ccc2c(c1)OCCn1cc(N3C(=O)OCC3C(F)F)nc1-2)C(N)=O
Result: inactive

Request: And then CC(C)NCC(C(=O)N1CCN(c2ncnc3c2C(C)CC3O)CC1)c1ccc(Cl)cc1 (stereo not given) + COc1c(OCCCN2CCOCC2)ccc2c3n(c(=NC(=O)c4cnc(N)nc4)nc12)CCN3 , what is it?
Result: active

Request: Would you kindly repeat that for CCCS(=O)(=O)Nc1ccc(F)c(C(=O)c2c[nH]c3ncc(-c4ccc(Cl)cc4)cc23)c1F + CC(Nc1ccc2c(c1)OCCn1cc(N3C(=O)OCC3C(F)F)nc1-2)C(N)=O ?
Result: inactive

Request: Would you kindly repeat that for CNC(=O)c1ccc(N2C(=S)N(c3ccc(C#N)c(C(F)(F)F)c3)C(=O)C2(C)C)cc1F + CC(Nc1ncnc2nc[nH]c12)c1cc2cccc(Cl)c2c(=O)n1-c1ccccc1 ?
Result: inactive

Request: Also need C[C@@H](NC(=O)c1ncnc(N)c1Cl)c1ncc(C(=O)Nc2cc(C(F)(F)F)c(Cl)cn2)s1 + CC(Nc1ncnc2nc[nH]c12)c1cc2cccc(Cl)c2c(=O)n1-c1ccccc1 , thanks.
Result: inactive

Request: Also CC(C)NCC(C(=O)N1CCN(c2ncnc3c2C(C)CC3O)CC1)c1ccc(Cl)cc1 (stereo not given) + CC(Nc1ccc2c(c1)OCCn1cc(N3C(=O)OCC3C(F)F)nc1-2)C(N)=O ?
Result: inactive

Request: Also CC(Cn1ccc(-c2ccc(C#N)c(Cl)c2)n1)NC(=O)c1cc(C(C)O)[nH]n1 (stereo not given) + Cc1nc(NC(=O)N2CCCC2C(N)=O)sc1-c1ccnc(C(C)(C)C(F)(F)F)c1 ?
Result: inactive

Request: Cn1ncc(Cl)c1-c1cc(C(=O)NC(CN)Cc2cccc(F)c2)sc1Cl (stereo not given) + Cc1nc(NC(=O)N2CCCC2C(N)=O)sc1-c1ccnc(C(C)(C)C(F)(F)F)c1 ?
Result: inactive

Request: Repeat with CC(Cn1ccc(-c2ccc(C#N)c(Cl)c2)n1)NC(=O)c1cc(C(C)O)[nH]n1 (stereo not given) + COc1c(OCCCN2CCOCC2)ccc2c3n(c(=NC(=O)c4cnc(N)nc4)nc12)CCN3
Result: active
